details: buffer; pH 7.4; 200.0 µM
attribute.measured: log10 of solubility kinetic (log10 of the value in mg/mL)

compound	log10 of solubility kinetic
COc1cc(/C=C2\NC(=O)NC2=O)cc(Br)c1OC	-1.98
CC(=O)c1cccc(Nc2nc(-c3sc(N)nc3C)cs2)c1	-2.35
COc1ccc(CNc2nc3ccccc3n2C(C)C)c(O)c1	-1.59
CCc1cc(S(N)(=O)=O)cc(CC)c1NC(C)=O	-1.42
O=C(C(Cl)c1ccccc1)N1CCCC1 (configuration not stated)	-1.48
Cc1ccc(N=C2c3ccccc3C(=O)C2[N+](=O)[O-])cc1C (configuration not stated)	-2.06
CC(C)(C)c1ccc(C(=O)N2CCC(C(=O)NC3CC3)CC2)cc1	-1.32
O=C(C1CCCN(Cc2ccccc2F)C1)N1CCCC1.O=C(O)C(=O)O (configuration not stated)	-1.36
COc1ccc(-c2nc(C#N)c(N3CCCCC3)o2)cc1	-3.52
